Test system: Klebsiella pneumoniae PCI 602
Measured MIC accompanies every entry in the list below.
Assay Metric: MIC (µg/mL)

>>> meas_value("NC[C@@H]1O[C@H](O[C@H]2[C@@H](O)[C@H](O[C@@H]3[C@@H](O)[C@H](N)C[C@H](N)[C@H]3O[C@H]3O[C@H](CNCCO)[C@@H](O)C[C@H]3N)O[C@@H]2CO)[C@H](N)[C@@H](O)[C@@H]1O [HALVB]")
0.78
>>> meas_value("NC[C@@H]1O[C@H](O[C@H]2[C@@H](O)[C@H](O[C@@H]3[C@@H](O)[C@H](N)C[C@H](N)[C@H]3O[C@H]3O[C@H](CN)[C@@H](O)C[C@H]3N)O[C@@H]2CO)[C@H](N)[C@@H](O)[C@@H]1O [ALVB, 6'-amino-6'-deoxylividomycin B]")
0.78
>>> meas_value("NC[C@@H]1O[C@H](O[C@H]2[C@@H](O)[C@H](O[C@@H]3[C@@H](O)[C@H](N)C[C@H](N)[C@H]3O[C@H]3O[C@H](CO)[C@@H](O)C[C@H]3N)O[C@@H]2CO)[C@H](N)[C@@H](O)[C@@H]1O [LVB, lividomycin B, reference compound]")
1.56
>>> meas_value("CNC[C@H]1O[C@H](O[C@H]2[C@H](O[C@@H]3O[C@H](CO)[C@@H](O[C@H]4O[C@@H](CN)[C@@H](O)[C@H](O)[C@H]4N)[C@H]3O)[C@@H](O)[C@H](N)C[C@@H]2N)[C@H](N)C[C@@H]1O [MALVB, 6'-deoxy-6'-methylaminolividomycin B]")
0.78
